experiment: binders of probe aFSTL3 on microarray, primary screen, stem cell growth factor project, biochemical, small-molecule microarray, fluorescence 635/667 (AID 1064); settings: higher = more signal;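 also: measures binding of the biotinylated anti-FSTL3 antibody to printed compounds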
Reported composite z-score by item:
A bare number is all that is needed in reply.

// worked examples, composite z-score included
MOLECULE	composite z-score
CCC(=O)[C@]12O[C@@]3([C@@H]4C(=O)OCC[C@@H]41)N(CC)C(C)=C(C(=O)OC)[C@@H](c1ccccc1)N3C2=O	0.162
CC/C=C/C(=O)N(C[C@@H]1CCCO1)[C@@H]1CC(C(=O)NCCO)=C[C@H](Oc2c(I)cc(CO)cc2OC)[C@H]1O	-0.329
CCCC[C@H]1OB(O)C[C@H]2C1=C(COC)C[C@H]1C(=O)N(Cc3ccccc3)C(=O)[C@H]12	-0.193
C=CCN1C(=O)[C@@]2(O[C@@H](CCn3cc([C@H](O)c4ccccc4)nn3)[C@H]([Si](C)(C)c3ccc(OC)cc3)[C@H]2C)c2cc(N3CCOC3=O)ccc21	0.228
CO[C@H]1COC(=O)[C@H](Cc2ccccc2)NC(=O)CC=C[C@@H](C)[C@H](OC)COC(=O)CC=C[C@@H]1C	-0.453
Cc1ccc(S(=O)(=O)N2[C@@H](c3ccccc3)C(C(=O)O)=CC[C@H]2c2ccccc2)cc1	-0.0332

INPUT: I have this molecule here, `COCC(=C=CC[C@H](O)c1ccc(OCCO)cc1)C[C@H](O)c1ccccn1` , and I need its recorded composite z-score.
OUTPUT: -0.103

INPUT: I have this molecule here, Cc1ccccc1C(O)C1C=CC2C(=O)N(c3ccccc3)C(=O)C2N1Nc1ccc(C#N)cc1 (stereo not drawn) , and I need its recorded composite z-score.
OUTPUT: 0.834

* * *

assay: basal RPMI8226 mitochondrial membrane potential changes, profiling panel, cell-based, JC-1 fluorescence, 24 h, 100 nL compound (AID 1169); settings: RPMI8226 myeloma, JC-1 mitochondrial potential fluorescence, higher = more signal; also: test concentration not given here
Reported z-score by item:
A bare number is all that is needed in reply.

CN(C)CCCC[C@@H]1NC(=O)[C@@H]2C[C@H](C(=O)O)[C@H](c3ccc(O)cc3)N2C1=O -0.0425
O=C(CS)NCCCCCNC(=O)[C@H]1C[C@H]2C(=O)N3CCC[C@H]3C(=O)N2[C@H]1c1ccc(O)cc1 0.34
CC(C)[Si]1(C(C)C)OCc2cc(C3CC3)nc(-c3ccccc3)c21 -0.373

INPUT: I have this molecule here, `C[C@H]1COC(=O)[C@@H]2CCCN2C(=O)[C@@H](C)COC(=O)[C@@H]2CCCN2C1=O` , and I need its recorded z-score.
OUTPUT: -0.108

INPUT: I have this molecule here, `CO[C@H]1COC(=O)[C@@H](OCc2ccccc2)C=C[C@H](C)[C@@H](OC)COC(=O)[C@H](OCc2ccccc2)C=C[C@@H]1C` , and I need its recorded z-score.
OUTPUT: -0.262

* * *

experiment: S. cerevisiae growth modulation with rapamycin, primary screen, strain BY4716, OD600, 96 h (AID 1091); conditions: higher = more signal, called active from +8 up or from −8 down; also: test concentration not given here
Calls of active or inactive are those of the source.
METRIC: z-score

// worked examples, z-score included
CCOC(=O)C[C@H]1[C@H](OC(=O)c2ccccc2-c2ccccc2)[C@@H](NC(=O)C2CCCCC2)c2cc(OCCCO)ccc2N1C(=O)c1ccccc1 1 (inactive)
CCCC[C@@H]1C[C@H]1[C@@H](NC(=O)c1cccs1)c1ccc(Cl)cc1 0.413 (inactive)
COc1cccc([C@H]2N[C@H](C(=O)O)CC[C@@H]2C)c1 0.48 (inactive)

Next compound, z-score to be filled in.
INPUT: I have this compound here, `Cc1ccc(S[C@]2(C(=O)NCCCN(C)C)CC(=O)N(Cc3ccccc3)[C@@H]2c2ccc(CO)cc2I)cc1` , and I need its recorded z-score.
OUTPUT: 0.768 (inactive)

* * *

Reported composite z-score by item:
assay: small-molecule microarray binders of probe aDKK1, primary screen, biochemical, biotinylated probe, 635/667 nm fluorescence (AID 1099); settings: higher = more signal;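 also: score merges 667nm spot fluorescence with signal to noise across triplicate slides; reference of the scale not given here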

MOLECULE	composite z-score
CCN1C(C)=C(C(=O)OC)[C@@H](c2ccccc2)N2C(=O)[C@](O)(C(=O)OC)[C@@H](c3ccccc3)C(C(C)=O)=C12	0.182

INPUT: I have this molecule here, `COCCOC(=O)N1C(=O)[C@@]2(c3ccccc31)[C@H](C(=O)N1CCc3cc(OC)c(OC)cc3C1)[C@H]1C(=O)O[C@H](c3ccccc3)[C@H](c3ccccc3)N1[C@@H]2c1ccccc1OCCO` , and I need its recorded composite z-score.
OUTPUT: 0.401

INPUT: I have this molecule here, COC(=O)C1=CC(c2ccc(CO)cc2)=CC(c2cccs2)N(Cc2cccc(OC(F)(F)F)c2)C=C1C(=O)OC (stereo not drawn) , and I need its recorded composite z-score.
OUTPUT: -0.0873

INPUT: I have this molecule here, `C/C(=N\O)C(=O)NCCCCCNC(=O)OCc1ccccc1` , and I need its recorded composite z-score.
OUTPUT: -0.186

INPUT: I have this molecule here, `C[N+](C)(C)CCCCNC(=O)[C@H]1C[C@H]2C(=O)NCC(=O)N2[C@H]1c1cccc(OCCO)c1` , and I need its recorded composite z-score.
OUTPUT: 0.0166

INPUT: I have this molecule here, `CO[C@H]1COC(=O)CC=C[C@H](C)[C@@H](OC)COC(=O)CC=C[C@@H]1C` , and I need its recorded composite z-score.
OUTPUT: -0.546

INPUT: I have this molecule here, Cc1ccccc1C(O)C1C=CC2C(=O)N(c3ccccc3)C(=O)C2N1Nc1ccc(C#N)cc1 (stereo not drawn) , and I need its recorded composite z-score.
OUTPUT: 1.35

INPUT: I have this molecule here, `C=CCOC(=O)[C@@H]1[C@H]2C(=O)O[C@H](c3ccccc3)[C@H](c3ccccc3)N2[C@H](c2ccc(OCCOC(=O)[C@H]3C[C@H]4C(=O)N[C@@H](CCCCNC(C)=O)C(=O)N4[C@H]3c3ccc(O)cc3)cc2)[C@@]12C(=O)Nc1ccc(I)cc12` , and I need its recorded composite z-score.
OUTPUT: -0.173

* * *

Reported z-score by item:
experiment: splicing luciferase reporter signal modulators, primary screen, spliceosome inhibition project, cell-based, HEK293, splice +/- reporter (AID 1101); details: luminescence, 24 h, higher = more signal, called active from +8 up or from −8 down;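 also: HEK293 cells carrying a splicing-competent luciferase reporter gene; test concentration not given here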
Active and inactive are the calls of the source.

// worked examples, z-score included
COMPOUND	z-score
CO[C@H]1O[C@H](CO)[C@@H](OC(=O)CCc2ccccc2)[C@@H]2OC(=O)[C@H](Cc3cccc(Br)c3)C/C=C/C[C@@H](Cc3cccc(Br)c3)C(=O)O[C@@H]12	-2.19 (inactive)
O=C1C2C=CC(C(O)Cc3ccccc3)N(Nc3ccc([N+](=O)[O-])cc3)C2C(=O)N1c1ccccc1 (configuration not stated)	0.843 (inactive)
CCOC(=O)C1=CC[C@@H](c2ccccc2)N(S(=O)(=O)c2ccc(C)cc2)[C@H]1C	-0.993 (inactive)
COc1cc2c(cc1OC)CN(C(=O)[C@H]1[C@@H]3C(=O)O[C@@H](c4ccccc4)[C@@H](c4ccccc4)N3[C@@H](c3ccc(O)cc3)[C@]13C(=O)Nc1ccc(C#CC4(O)CCCCCC4)cc13)CC2	-0.81 (inactive)
CCCC=C(CCC)[C@@H](NC(=O)c1ccc(C(F)(F)F)cc1)c1ccccc1	-3.52 (inactive)
C[N+](C)(C)CCCC[C@@H]1NC(=O)[C@H]2C[C@@H](C(=O)NCc3ccc(F)cc3)[C@@H](c3cccc(OCCO)c3)N2C1=O	-0.178 (inactive)
NC(=O)NCC#Cc1ccc2c(c1)[C@]1(C(=O)N2)[C@H](C(N)=O)[C@H]2C(=O)O[C@H](c3ccccc3)[C@H](c3ccccc3)N2[C@@H]1c1ccccc1OCCO	-0.328 (inactive)
O=C1C2C=CC(C(O)C#Cc3ccccc3)N(Nc3ccccc3)C2C(=O)N1c1ccccc1 (configuration not stated)	0.287 (inactive)
CCC(=O)[C@]12O[C@@]3([C@@H]4C(=O)OCC[C@@H]41)N(CC)C(C)=C(C(=O)OC)[C@@H](c1ccccc1)N3C2=O	-1.9 (inactive)
COCCOC(=O)N1C(=O)[C@@]2(c3cc(C#CCCO)ccc31)[C@H](c1ccc(OCCO)cc1)N1[C@H](c3ccccc3)[C@H](c3ccccc3)OC(=O)[C@H]1[C@@H]2C(=O)NC[C@H](O)c1ccccc1	-0.6 (inactive)

INPUT: I have this compound here, COC(=O)C1=CC(c2ccc(CO)cc2)=CC(C2CC2)N(Cc2sc3ccccc3c2Cl)C=C1C(=O)OC (configuration not stated) , and I need its recorded z-score.
OUTPUT: -1.16 (inactive)

INPUT: I have this compound here, `Cc1ccc(S(=O)(=O)c2cc3oc2CC[C@@H](CO)NC(=O)N(C)Cc2cn(nn2)C[C@H](Cc2ccccc2)NC3=O)cc1` , and I need its recorded z-score.
OUTPUT: -0.0233 (inactive)
